Test system: Pant promoter (Pant713, antR/Pant)
METHOD: Anthranilate promoter (Pant) reporter gene induction (lacZ / phoA)
Format: cell-based, Pseudomonas fluorescens
CONDITION: P. fluorescens, reporter gene lacZ or phoA

[
  {
    "MOLECULE": "Nc1c(Cl)cccc1C(=O)O [3-chloro-anthranilate]",
    "induction of the anthranilate promoter": "inducible"
  },
  {
    "MOLECULE": "Nc1ccccc1C(=O)[O-].[Na+] [sodium anthranilate]",
    "induction of the anthranilate promoter": "inducible"
  },
  {
    "MOLECULE": "Nc1ccc(Cl)cc1C(=O)O [5-chloro-anthranilate]",
    "induction of the anthranilate promoter": "inducible"
  },
  {
    "MOLECULE": "Nc1cc(Cl)ccc1C(=O)O [4-chloro-anthranilate]",
    "induction of the anthranilate promoter": "inducible"
  },
  {
    "MOLECULE": "Nc1ccccc1C(=O)O",
    "induction of the anthranilate promoter": "inducible"
  },
  {
    "MOLECULE": "Nc1cccc(Cl)c1C(=O)O [6-chloro-anthranilate, 6-chloroanthranilate]",
    "induction of the anthranilate promoter": "inducible"
  }
]
